# System: HT-1080 cells
# protocol_text: HT-1080 cell viability assay (ferroptosis induced by RSL3, Cell Titer-Glo)
# Assay type: cell-based
# condition_summary: Homo sapiens, HT-1080, 20 h, ferroptosis inducer RSL3, 20 hours, ferroptosis inhibitory activity, Table 2
Each item that follows carries a reported EC50.

// solved cases for EC50 follow
CC(C)(C)c1ccc(NC2CCC(CNc3cn[nH]c3)CC2)cc1 (centres unmarked)    0.1 to 100 nM
CC1CN(c2ccc(NC[C@H]3CC[C@H](N)CC3)cc2Cl)CC(C)O1 (some centres unmarked)    0.1 to 100 nM
Cc1cc(N2CCC(C(F)(F)F)CC2)ccc1NC1CCC(N)CC1 (centres unmarked)    0.1 to 100 nM
N[C@H]1CC[C@H](CNc2ccc3c(c2)CCC3)CC1    0.1 to 100 nM
CCC(C)(C)c1ccc(NC2CCC(O)CC2)cc1 (centres unmarked)    100 to 1000 nM
CC1CC(Nc2ccc(C(C)(C)C)cc2)CCC1N (centres unmarked) [Compound 250A]    0.1 to 100 nM
CC(C)(C)c1ccc(NC2CC(N)C2)cc1 (centres unmarked)    100 to 1000 nM
Cc1nc(N2C[C@@H](C)N(CC(F)(F)F)[C@@H](C)C2)ccc1NC1C2CC3CC1CC(N)(C3)C2 (some centres unmarked)    0.1 to 100 nM
CCN1CCC(Nc2ccc(C3CCCCC3)cc2)CC1    0.1 to 100 nM
Cc1nc(N2CC(C)OC(C)C2)c(F)cc1NC1C2CC3CC1CC(N)(C3)C2 (centres unmarked)    0.1 to 100 nM

Enquiry: Entry CC1(C)CCC(c2ccc(NCCCCN)cc2)CC1 has what EC50?
Return: 0.1 to 100 nM

Enquiry: Please look up its EC50: Cc1nc(N2CCOC(C)C2)ccc1NC1C2CC3CC1CC(N)(C3)C2 (centres unmarked)
Return: 0.1 to 100 nM

Enquiry: Recorded EC50 for CC(C)C1CCN(c2ccc(NC3CCC(N)CC3)nc2)CC1 (centres unmarked) , please?
Return: 0.1 to 100 nM

Enquiry: Requested field: EC50. Item: CC1(C)CCC(c2ccc(NC3CCC(N)C3)cc2)CC1 (single isomer, unassigned) [Compound 121A]
Return: 0.1 to 100 nM

Enquiry: Give the measured EC50 of CC1(C)CCC(C)(C)c2cc(NC3CCC(N)CC3)ccc21 (centres unmarked) .
Return: 0.1 to 100 nM

Enquiry: Could you tell me which EC50 is on file for CCNC1C[C@@H]2CC(Nc3ccc(N4CCC(C(F)(F)F)CC4)cc3F)C[C@@H]2C1 (some centres unmarked) ?
Return: 0.1 to 100 nM

Enquiry: Entry NC1CCC(Nc2ccc3ccccc3c2)CC1 (centres unmarked) : reported EC50 = ?
Return: 0.1 to 100 nM

Enquiry: Fill in the blank: the reported EC50 of CN[C@H]1CC[C@H](CNc2ccc(N3CC(C)OC(C)C3)cc2)CC1 (some centres unmarked) is ____.
Return: 0.1 to 100 nM

Enquiry: State the recorded EC50 for this entry: CC(C)(C)c1ccc(NC2CCC(CNC(=O)C3CNC(=O)C3)CC2)cc1 (single isomer, unassigned) [Compound 144A]
Return: 100 to 1000 nM
